- Test system: SNB-19 CNS
- TEST_NAME: NCI tumour cell line growth inhibition, 48 h
TGI for assorted molecules

MOLECULE | TGI
COc1ccc(NS(=O)c2ccc(Cl)cc2)cc1 (stereo unspecified) | > 100 µM
CCN(CC)CCn1c(=O)c2ccccc2n2c3c(=O)n(C)c(=O)n(C)c3nc12 | 38.1 µM
CN(C(=O)c1cccs1)C(=S)N1CCN(c2ccccn2)CC1 | > 100 µM
CC(=O)OCC1OC(OC2CCCC[Si](c3ccccc3)(c3ccccc3)O2)C(OC(C)=O)C(OC(C)=O)C1OC(C)=O (stereo unspecified) | > 100 µM
CN=c1oc2ccccc2cc1C(N)=O | > 100 µM
C[C@]12CC[C@@H]3c4ccc(O)cc4CC[C@H]3[C@@H]1CC[C@@H]2OC(=O)CCC1CCCC1 | 31.3 µM
